- System: G. piotii strain Gv_17
- experimental protocol: Quantitative reduction in viable CFU assay in bacterial suspension
- Format: cell-based, Gardnerella piotii
- assay context: 5 hours, pH 5.0, anaerobic, 10 ul endolysin (0.2 mg/ml where possible) + 90 ul 5e7 CFU/ml, average of triplicate
Examples of molecules with documented log 10 of the ratio of surviving CFU for treated vs. untreated cells follow.
Field format: number, assumed log 10, no unit text.

H6B6: natural Gardnerella prophage endolysin from strain 1400E, truncated at the C-terminus (protein, EL6_strain_1400E_frameshift, natural Gardnerella prophage endolysin from strain 1400E, truncated at the C-terminus) MSKKGIDVSVWQGDIDFNAVKASGVEFVIIRAGYGIGCKDKWFEQNYRKAKTCGLDVGAYWYSYANSGFEAAEEAQSCVNMLSGKSFEYPVYFDLEEKSQLNRGRAFCDSLITSFCSKLESCGYYAGFYTSLSTANNLVSAHVRNRYALWIAQWNTHCDYQGSYGLWQYSSSGSVPGVAGRVDMDYAYKNYPSIIKNAGLNGCKNGGSNQAARTSSIDDVAREVINGAWGNGNERKQRLTQAGYDYASVAK : −0.2

Specify measured log 10 of the ratio of surviving CFU for treated vs. untreated cells for H4B4: natural Gardnerella prophage endolysin from strain Gv5-1 (protein, EL4_strain_Gv5-1) MSKKGIDVSEWQGDIDFNAVKASGVEFVIIRAGYGIGCKDKWFEQNYRKAKTCGLDVGAYWYSYANSGFEAAEEAQSCVNMLSGKSFEYPVYFDLEEKSQLNRGRAFCDSLITSFCSKLETYGYYAGFYTSLSVVNNLVSAHVRDRYALWIAQWNTHCSYQGSYGLWQYSSSGSVPGVAGRVDMDYAYVDYPSIIKNVGLNGCKNGGSDQATRTSSIDEVAREVINGAWGNGNERKQRLTSAGYDYASVQNKVNKLLGVKAYRKSVDELAREVIRGTWGNGNERKQRLAQAGYDYDTVQKRVNELL .
−0.4
